- assay_system: Recombinant GST-TAG-MASTL (Homo sapiens, UniProt Q96GX5)
- Construct: GST; purchased Thermo Fisher Scientific
- Sequence (Q96GX5 whole entry): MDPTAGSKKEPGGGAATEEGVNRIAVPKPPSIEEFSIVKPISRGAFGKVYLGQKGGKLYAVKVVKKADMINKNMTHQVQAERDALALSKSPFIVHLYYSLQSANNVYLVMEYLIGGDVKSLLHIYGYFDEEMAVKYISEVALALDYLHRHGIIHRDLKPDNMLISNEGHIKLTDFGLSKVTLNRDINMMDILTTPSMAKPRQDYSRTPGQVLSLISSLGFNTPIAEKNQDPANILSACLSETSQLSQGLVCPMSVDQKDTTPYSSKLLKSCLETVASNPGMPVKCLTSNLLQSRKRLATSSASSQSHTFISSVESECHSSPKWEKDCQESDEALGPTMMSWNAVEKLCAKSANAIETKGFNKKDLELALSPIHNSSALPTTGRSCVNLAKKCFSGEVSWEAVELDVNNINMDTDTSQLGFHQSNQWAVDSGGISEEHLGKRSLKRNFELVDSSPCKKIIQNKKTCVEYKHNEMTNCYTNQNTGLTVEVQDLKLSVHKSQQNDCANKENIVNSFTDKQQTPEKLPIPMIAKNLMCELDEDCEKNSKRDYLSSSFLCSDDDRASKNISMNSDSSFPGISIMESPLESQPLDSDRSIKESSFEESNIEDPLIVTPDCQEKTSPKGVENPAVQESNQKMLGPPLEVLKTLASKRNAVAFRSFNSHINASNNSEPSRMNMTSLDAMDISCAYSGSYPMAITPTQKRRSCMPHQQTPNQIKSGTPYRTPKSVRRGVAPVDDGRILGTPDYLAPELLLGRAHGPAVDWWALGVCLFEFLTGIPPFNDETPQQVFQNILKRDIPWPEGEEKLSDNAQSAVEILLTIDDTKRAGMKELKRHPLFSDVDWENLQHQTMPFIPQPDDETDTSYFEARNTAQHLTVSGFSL
- method_summary: HTRF-based kinase assay (HTRF KinEASE assay kit)
- Assay type: biochemical
- condition_context: HTRF; unit µM; read-out: IC50 MASTL activity
observable: IC50 (µM)

1. Nc1ccc(Nc2nc(Nc3cc(C4CC4)[nH]n3)c3ccccc3n2)cc1 [compound 4v] = 1.5
2. N#CCc1ccc(Nc2nc(Nc3n[nH]c4ccccc34)c3ccccc3n2)cc1 [compound 3s] = 4.4
3. Nc1nc(Nc2cc(C3CC3)[nH]n2)c2ccccc2n1 [compound 4ca] = 1.8
4. CC(C)(C)OC(=O)N1CC2CC1CN2c1nc(Nc2cc(C3CC3)[nH]n2)c2ccccc2n1 (centres unmarked) [compound 13] = 1
5. c1ccc2c(Nc3cc(C4CC4)[nH]n3)nc(N3CCNCC3)nc2c1 [compound 11] = 1
6. CC(C)(C)OC(=O)NCCNC(=O)c1ccc(Nc2nc(Nc3cc(C4CC4)[nH]n3)c3ccccc3n2)cc1 [compound 4w] = 1.3
7. Brc1ccc(Nc2nc(Nc3cc(C4CC4)[nH]n3)c3ccccc3n2)cc1 [compound 4b] = 1.4
8. CCNC(=O)N1CC2CC1CN2c1nc(Nc2cc(C3CC3)[nH]n2)c2ccccc2n1 (centres unmarked) [compound 15a] = 1.1
